test system: CAMK1D; details: concentration: 1 μM, replicates: in singlicate; n = 1;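 note: KINOMEscan kinase panel screen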
Label Met when %Inh is strictly below 5%; at or above that, label Not met.

Exercise: Report whether reported %Inh is lower than 5% (strictly) for CCS(=O)c1ccc(-c2coc3ccc(-c4nnc(C)o4)cc23)cc1 (centres unmarked)
Key: Not met

Exercise: Also need CCC(=O)c1c(-c2ccccc2)c2cc(Cl)ccc2c(=O)n1Cc1ccc(C(=O)O)cc1 , thanks.
Key: Met

Exercise: Also need COc1cc2ncn(-c3cc(OCc4ccncc4)c(C(N)=O)s3)c2cc1OC , thanks.
Key: Not met

Exercise: Also need Nc1n[nH]c2nnc(-c3ccccc3)c(-c3ccccc3)c12 , thanks.
Key: Met

Exercise: Also need O=C(NCc1cccs1)c1cc(C(=O)c2c(Cl)cccc2Cl)c[nH]1 , thanks.
Key: Met

Exercise: Also need O=C1NC(=O)C(c2ccccc2)=C1Nc1cccc(O)c1 , thanks.
Key: Met

Exercise: Also need CCCNC(=O)Nc1ccc(Oc2ncnc3ccn(C)c23)cc1 , thanks.
Key: Met

Exercise: Also need COc1cccc(C2=C(Nc3cccc(C(=O)O)c3)C(=O)NC2=O)c1 , thanks.
Key: Met

Exercise: Also need Cl.NS(=O)(=O)c1cccc(Nc2cc(-c3ccc(F)cc3)n[nH]2)c1 , thanks.
Key: Met

Exercise: Also need Nc1nc(N)c2nc(-c3ccccc3)[nH]c2n1 , thanks.
Key: Met

Exercise: Also need COc1cc(Nc2nccc(N3CCC(NC(=O)C4COc5ccccc5O4)C3)n2)cc(OC)c1OC (centres unmarked) , thanks.
Key: Not met

Exercise: Also need COc1cc2ncn(-c3cc(OCCCc4ccccc4)c(C(N)=O)s3)c2cc1OC , thanks.
Key: Not met

Exercise: Also need COc1ccc(-c2cc3c(C)nc(N)nc3n([C@H]3CC[C@H](OCCO)CC3)c2=O)cn1 , thanks.
Key: Met

====

Let's look at some molecules and their measured %Inh.
test system: PRKG2; details: concentration: 1 μM, replicates: in singlicate; n = 1
Write it as a number; the unit % goes unstated.

Solved cases (2 shown):
Exercise: So what's the measured %Inh for this one? COC(=O)c1c(-c2ccccc2)c2cc(Br)ccc2c(=O)n1Cc1ccc(NC(=O)CCC(=O)O)cc1
Key: 0

Exercise: Also need O=C(NCCNc1ccnc(Nc2ccc(F)cc2)n1)Nc1ccc2c(c1)OCO2 [GSK1379882] , thanks.
Key: 0

Here is another molecule to look at.
Exercise: So what's the measured %Inh for this one? COc1cccc(C2=C(Nc3cccc(C(=O)O)c3)C(=O)NC2=O)c1 [SB-390770]
Key: 0

====

test system: CLK4; conditions: concentration: 1 μM, replicates: in singlicate; n = 1
We use 9% as the dividing line for %Inh: on or above the line is yes (1), below is no (0).

Some entries whose results are on file:
Exercise: Could you please find out whether COc1cccc(C2=C(Nc3cccc(C(=O)O)c3)C(=O)NC2=O)c1 [SB-390770] has %Inh that meets 9% or exceeds it?
Key: yes (1)

Exercise: Also need O=C(Nc1n[nH]c2cc(-c3ccccc3F)ccc12)C1CC1 [SB-733371] , thanks.
Key: no (0)

Continuing:
Exercise: Could you please find out whether O=C(Nc1ccc2c(c1)OCO2)NC1CCN(c2ccnc(NCc3ccc(F)cc3)n2)CC1 [GSK1379859] has %Inh that meets 9% or exceeds it?
Key: yes (1)

Exercise: Also need COc1cc(Nc2nccc(N3CCC(NC(=O)C4COc5ccccc5O4)C3)n2)cc(OC)c1OC (stereo not shown) [GSK1379761] , thanks.
Key: no (0)

Exercise: Also need CCCNC(=O)Nc1ccc(Oc2ncnc3ccn(C)c23)cc1 , thanks.
Key: no (0)

Exercise: Also need COc1ccc(-c2cc3c(C)nc(N)nc3n([C@H]3CC[C@H](O)CC3)c2=O)cn1 , thanks.
Key: no (0)

Exercise: Also need CN1C(=O)C(Nc2cc(Cl)c(O)c(Cl)c2)=C(c2ccc(Cl)cc2)C1=O [SB-404321] , thanks.
Key: no (0)

Exercise: Also need COc1cc2nccc(Nc3ccc(OCc4ccc(NC(C)=O)cc4)cc3)c2cc1OC.Cl [GW440135] , thanks.
Key: no (0)

Exercise: Also need COc1cccc(-n2cnc3c(N)ncnc32)c1 [SKF-97416] , thanks.
Key: no (0)

Exercise: Also need Nc1n[nH]c2nnc(-c3ccccc3)c(-c3ccccc3)c12 [GW554060] , thanks.
Key: yes (1)

Exercise: Also need Cc1nc(N(C)[C@H]2CN(C(=O)CC#N)CC[C@H]2C)c2cc[nH]c2n1 , thanks.
Key: no (0)

Exercise: Also need C[C@@H]1CC[C@H](C(=O)NC2CCCCC2)CN1c1cc(-c2ccc3c(N)n[nH]c3c2)nc(N)n1 [GSK2291363] , thanks.
Key: yes (1)
